biological target: TSLP, Q969D9; experiment: Kd (SPR)
# pKd listing for each entry below
# pKd: negative log10 of molar concentration; output just the value

Examples with their reported pKd follow.
unnamed (protein) chain 1: QMQLVESGGGVVQPGRSLRLSCAASGFTFSTYAMHWVRQAPGKGLEWVAVIWYDGSNKHYADSVKGRFTITRDNSKNTLNLQMNSLRAEDTAVYYCARAPRYDEYWEAFDVWGQGTMVTVSS chain 2: SYVLTQPPSVSVAPGQTARITCGGNNLGSKSVHWYQQKPGQAPVLVVYDDSDRPSWIPERFSGSNSGNTATLTISRGEAGDEADYYCQVWDSSSDHVVFGGGTKLTVL    6.20
unnamed (protein) chain 1: QMQLVESGGGVVQPGRSLRLSCAASGFTFSTFAMHWVRQAPGKGLEWVAVIWYDGGNKHYADSVKGRFTITRDNSKNTLNLQMNSLRAEDTAVYYCARAPRYDEYYEAFDVWGQGTMVTVSS chain 2: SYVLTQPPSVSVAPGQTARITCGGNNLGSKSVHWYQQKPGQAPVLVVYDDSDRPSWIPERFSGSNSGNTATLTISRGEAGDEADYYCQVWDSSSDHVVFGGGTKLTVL    6.66
unnamed (protein) chain 1: QMQLVESGGGVVQPGRSLRLSCAASGFTFSTYAMHWVRQAPGKGLEWVAVIWYDGSNKHYADSVKGRFTITRDNSKNTLNLQMNSLRAEDTAVYYCARSPRYDEYWEAFDVWGQGTMVTVSS chain 2: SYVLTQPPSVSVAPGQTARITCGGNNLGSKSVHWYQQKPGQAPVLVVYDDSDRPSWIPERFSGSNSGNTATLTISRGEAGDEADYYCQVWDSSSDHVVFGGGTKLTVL    6.08
unnamed (protein) chain 1: QMQLVESGGGVVQPGRSLRLSCAASGFTFSSYAMHWVRQAPGKGLEWVAVIWYDGSNKHYADSVKGRFTITRDNSKNTLNLQMNSLRAEDTAVYYCARAPRYDDYYEAFDVWGQGTMVTVSS chain 2: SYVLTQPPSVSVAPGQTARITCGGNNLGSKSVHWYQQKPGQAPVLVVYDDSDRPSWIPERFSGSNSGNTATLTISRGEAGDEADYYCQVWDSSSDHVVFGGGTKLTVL    6.82
unnamed (protein) chain 1: QMQLVESGGGVVQPGRSLRLSCAASGFTFRTYGMHWVRQAPGKGLEWVAVIWYDGSNKHYADSVKGRFTITRDNSKNTLNLQMNSLRAEDTAVYYCARAPRYYEAYEAFDVWGQGTMVTVSS chain 2: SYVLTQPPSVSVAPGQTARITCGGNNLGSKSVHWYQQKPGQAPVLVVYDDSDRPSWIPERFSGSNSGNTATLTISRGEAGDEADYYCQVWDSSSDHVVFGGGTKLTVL    7.51

## Task Consider the binder shown here: unnamed (protein) chain 1: QMQLVESGGGVVQPGRSLRLSCAASGFTFSTFAMHWVRQAPGKGLEWVAVIWYDGSNKHYADSVKGRFTITRDNSKNTLNLQMNSLRAEDTAVYYCARAPRYDEHYEAFDVWGQGTMVTVSS chain 2: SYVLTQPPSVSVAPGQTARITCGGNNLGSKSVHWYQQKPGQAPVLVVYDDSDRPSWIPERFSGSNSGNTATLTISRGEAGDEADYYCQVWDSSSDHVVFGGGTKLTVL What is its recorded pKd?
## Result 6.11

## Task Entry unnamed (protein) chain 1: QMQLVESGGGVVQPGRSLRLSCAASGFTFSTFAMHWVRQAPGKGLEWVAVIWYDGSNKHYADSVKGRFTITRDNSKNTLNLQMNSLRAEDTAVYYCARAPRYDDLYEAFDVWGQGTMVTVSS chain 2: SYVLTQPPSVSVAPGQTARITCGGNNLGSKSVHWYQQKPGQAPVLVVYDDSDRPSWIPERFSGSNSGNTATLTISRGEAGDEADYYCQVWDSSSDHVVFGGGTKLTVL : reported pKd = ?
## Result 6.73

## Task Record request: pKd value, item unnamed (protein) chain 1: QMQLVESGGGVVQPGRSLRLSCAASGFTFSTYAMHWVRQAPGKGLEWVAVIWYDGSNKHYADSVKGRFTITRDNSKNTLNLQMNSLRAEDTAVYYCARSPRYYEYYEAFDVWGQGTMVTVSS chain 2: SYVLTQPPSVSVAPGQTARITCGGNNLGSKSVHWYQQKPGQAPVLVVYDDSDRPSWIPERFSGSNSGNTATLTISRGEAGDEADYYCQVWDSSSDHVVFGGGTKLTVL
## Result 7.24

## Task # pKd lookup, item unnamed (protein) chain 1: QMQLVESGGGVVQPGRSLRLSCAASGFTFRTYGMHWVRQAPGKGLEWVAVIWYDGSNKHYADSVKGRFTITRDNSKNTLNLQMNSLRAEDTAVYYCARAPRYYDYLEAFDVWGQGTMVTVSS chain 2: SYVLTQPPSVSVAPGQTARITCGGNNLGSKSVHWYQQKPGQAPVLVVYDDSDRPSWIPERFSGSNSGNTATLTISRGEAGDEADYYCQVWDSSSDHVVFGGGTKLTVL
## Result 7.65

## Task Value lookup for pKd; key = unnamed (protein) chain 1: QMQLVESGGGVVQPGRSLRLSCAASGFTFRTYGMHWVRQAPGKGLEWVAVIWYDGSNKHYADSVKGRFTITRDNSKNTLNLQMNSLRAEDTAVYYCARAPRYDEYYDAFDVWGQGTMVTVSS chain 2: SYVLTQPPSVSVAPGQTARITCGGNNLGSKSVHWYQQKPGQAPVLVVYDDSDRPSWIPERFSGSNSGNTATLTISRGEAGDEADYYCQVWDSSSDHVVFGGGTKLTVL
## Result 6.53

Reference source: the FLAb antibody collection (doi:10.1101/2023.12.08.570889)
